measurement target: furin, P09958;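 further: purified furin at 1:10 enzyme:substrate in 50 mM HEPES pH 7.5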
Sequence (P09958 whole entry): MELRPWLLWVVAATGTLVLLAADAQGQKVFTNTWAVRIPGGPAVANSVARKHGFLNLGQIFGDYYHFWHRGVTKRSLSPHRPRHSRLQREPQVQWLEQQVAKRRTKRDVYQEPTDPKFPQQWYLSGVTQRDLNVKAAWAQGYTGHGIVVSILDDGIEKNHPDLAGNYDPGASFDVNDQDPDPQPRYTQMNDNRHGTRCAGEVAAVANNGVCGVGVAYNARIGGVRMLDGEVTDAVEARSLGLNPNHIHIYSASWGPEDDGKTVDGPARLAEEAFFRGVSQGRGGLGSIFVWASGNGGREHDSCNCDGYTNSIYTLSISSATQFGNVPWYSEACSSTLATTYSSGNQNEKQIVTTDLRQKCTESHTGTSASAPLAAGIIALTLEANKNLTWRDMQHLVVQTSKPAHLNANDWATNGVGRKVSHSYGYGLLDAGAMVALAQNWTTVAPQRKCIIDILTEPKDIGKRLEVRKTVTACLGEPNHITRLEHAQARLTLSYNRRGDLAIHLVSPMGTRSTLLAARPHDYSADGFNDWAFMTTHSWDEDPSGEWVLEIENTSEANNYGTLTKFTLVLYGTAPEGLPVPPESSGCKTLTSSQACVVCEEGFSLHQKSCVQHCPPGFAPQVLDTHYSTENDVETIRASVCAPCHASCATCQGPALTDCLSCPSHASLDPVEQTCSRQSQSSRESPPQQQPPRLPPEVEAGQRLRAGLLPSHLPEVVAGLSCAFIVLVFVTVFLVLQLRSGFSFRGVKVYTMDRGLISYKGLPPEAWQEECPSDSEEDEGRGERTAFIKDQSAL
protocol: furin cleavage Z-score vs untreated control; higher = more cleavage, active = 3.5 or more, inactive = 1 or less, 8 variable residues between constant flanks
condition description: 15 min
The other results are listed elsewhere or left out. How many sequences the whole screen found active is unknown.
Mark True for reported furin cleavage Z-score of 0.8 or greater; mark False for anything smaller.

Some solved cases for reference:
sequence record | qualitative label
CAMEECSQKLAGNASASA [HC1754] | False
CANIVDVQYLAGNASASA [HC508] | False
CADSEVVTSTAGNASASA [HC2297] | True
CAAWYLKGKWAGNASASA [HC548] | False
CATDRSGAPTAGNASASA [HC420] | False
CADSSRIKRRAGNASASA [FS-1449] | True
CAETPCSGSWAGNASASA [HC1832] | False
CAAPRSSMSNAGNASASA [TR10] | False
CATVTESDIRAGNASASA [HC1484] | False
CAMEECSQNLAGNASASA [HC1761] | True

Identify whether the reported furin cleavage Z-score of the following sequence is 0.8 or greater: CARFRRQQWKAGNASASA [FS-2416]
False
